- tested on: AVP-V2 sites (Rattus norvegicus, UniProt Q00788)
- Construct: male rat liver (AVP-V1 sites) or kidney medulla (AVP-V2 sites); from tissue; host or cells: male rat kidney medulla, crude membranes
- Sequence (Q00788 whole entry): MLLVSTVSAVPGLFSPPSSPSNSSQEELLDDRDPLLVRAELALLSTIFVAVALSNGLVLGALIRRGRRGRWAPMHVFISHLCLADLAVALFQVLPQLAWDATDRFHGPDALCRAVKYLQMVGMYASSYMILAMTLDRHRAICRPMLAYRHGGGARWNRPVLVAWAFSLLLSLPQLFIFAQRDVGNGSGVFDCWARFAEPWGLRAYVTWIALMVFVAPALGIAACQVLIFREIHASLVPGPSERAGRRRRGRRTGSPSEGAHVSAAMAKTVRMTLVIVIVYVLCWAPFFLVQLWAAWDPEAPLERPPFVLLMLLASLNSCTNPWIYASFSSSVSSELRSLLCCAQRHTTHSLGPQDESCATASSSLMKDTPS
- assay: [^3 H]AVP binding to crude membrane preparation of male rat kidney medulla (AVP-V2 sites)
- condition parameters: rat kidney medulla membranes, 2 nM [^3 H]AVP; read-out: Receptor Binding Results IC50 (nM) [^3 H]-AVP-V2
Numbered stars: 1 amine (or outer) side, 2 acyl side, 3 side chain; on linkers, the order of the positions; unused ones are H or OH. Square brackets hold non-standard residues; d marks the D form. Peptide text beside a SMILES is read from it. * marks the point of attachment. NH(2-(imidazol-4-yl)ethyl) = c1ncc(CCN*)[nH]1; X6 = O=C([C@H]1CCCNN1[*:1])[*:2]; dNMeF = CN[C@H](Cc1ccccc1)C(=O)O; Pip = O=C(O)[C@@H]1CCCCN1; dPip = O=C(O)[C@H]1CCCCN1; Orn = NCCC[C@H](N)C(=O)O; Boc = CC(C)(C)OC(=O)*
Provide the reported IC50 of each item.
Reply numerically in nM, unit not repeated.

Task item: Identify measured IC50 associated with CC[C@H](C)[C@@H]1NC(=O)[C@@H](Cc2c[nH]c3ccccc23)NC(=O)[C@@H]2CCCN2C(=O)[C@@H](Cc2c[nH]cn2)NC(=O)[C@H](CCCNC(=O)OC(C)(C)C)NC(=O)[C@H]2CCCNN2C1=O [Example 128] (cyclo(I[X6][Orn](Boc)[dH]P[dW]))
Reply: 10000

Task item: Identify measured IC50 associated with CC[C@H](C)[C@@H]1NC(=O)[C@@H](Cc2ccccc2)NC(=O)[C@@H]2CCCN2C(=O)[C@@H](Cc2ccccc2)N(C)C(=O)[C@H](CC(N)=O)NC(=O)[C@H]2CCCCN2C1=O [Example 118] (cyclo(I[dPip]N[dNMeF]P[dF]))
Reply: 10000

Task item: Identify measured IC50 associated with CC[C@H](C)[C@@H]1NC(=O)[C@@H](Cc2c[nH]c3ccccc23)NC(=O)[C@@H]2CCCN2C(=O)[C@@H](Cc2c[nH]cn2)NC(=O)[C@@H]2CCCCN2C(=O)[C@H]2CCCCN2C1=O [Example 17] (cyclo(I[dPip][Pip][dH]P[dW]))
Reply: 5400

Task item: Identify measured IC50 associated with CC[C@H](C)[C@@H]1NC(=O)[C@@H](Cc2ccccc2)NC(=O)[C@@H]2CCCN2C(=O)[C@@H](Cc2ccccc2)N(C)C(=O)[C@H](CC(=O)NCCc2c[nH]cn2)NC(=O)[C@H]2CCCCN2C1=O [Example 120] (cyclo(D(NH(2-(imidazol-4-yl)ethyl))[dNMeF]P[dF]I[dPip]))
Reply: 10000
